Biological target: Proteasome Macropain subunit MB1 (Homo sapiens)
Sequence (P28074 whole entry): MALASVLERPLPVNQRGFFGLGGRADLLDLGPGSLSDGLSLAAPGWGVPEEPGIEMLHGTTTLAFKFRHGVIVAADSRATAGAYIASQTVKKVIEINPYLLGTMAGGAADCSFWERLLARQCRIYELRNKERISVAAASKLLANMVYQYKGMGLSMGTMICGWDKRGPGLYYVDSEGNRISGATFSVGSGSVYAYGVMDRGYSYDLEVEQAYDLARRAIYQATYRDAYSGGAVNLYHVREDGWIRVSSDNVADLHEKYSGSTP
Assay: Inhibition of 20S constitutive proteosome beta5c subunit (unknown origin) assessed as substrate hydrolysis using Suc-Leu-Leu-Val-Tyr-AMC as fluorogenic substrate at 100 uM
Value Type: Ki (µM)

// solved cases for Ki follow
input_smiles=CCCCNC(=O)/C=C/Cn1ccc2cc(OC)c(OC)cc2c1=O value_type=Ki unit_label=µM result_value=19
input_smiles=COc1cc2ccn(C/C=C/C(=O)Nc3ccccc3)c(=O)c2cc1OC value_type=Ki unit_label=µM result_value=49

A. COc1cc2ccn(C/C=C/C(=O)NC3CCCCC3)c(=O)c2cc1OC
B. COc1cc2ccn(C/C=C/C(=O)NCCC(C)C)c(=O)c2cc1OC
C. COc1cc2ccn(C/C=C/C(=O)NCCc3ccccc3)c(=O)c2cc1OC
D. COc1cc2ccn(C/C=C/C(=O)NCCCc3ccccc3)c(=O)c2cc1OC
-- ask Sort the compounds on Ki; start with the lowest figure. Give the order by naming the labels one after another as requested.
-- reply B, D, A, C
